B1: POU domain, class 4, transcription factor 1, residues 266 to 347; numbered along this chain, Q01851 (parent)
chain: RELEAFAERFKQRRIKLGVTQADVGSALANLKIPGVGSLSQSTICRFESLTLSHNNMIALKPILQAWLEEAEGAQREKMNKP

Variants of: B1
Assay: abundance fitness (aPCA) (normalised: wild type 0, dead -1); higher = more abundant; growth selection in yeast, the domain comes from the species named
Conditions: Homo sapiens
Cut-off -0.08 on abundance fitness, inclusive. At or above means Fulfilled; below means Not fulfilled.

- Variant: "A27F"
  Group Label: "Not fulfilled"
- Variant: "G25M"
  Group Label: "Fulfilled"
- Variant: "L31D"
  Group Label: "Not fulfilled"
- Variant: "L52I"
  Group Label: "Not fulfilled"
- Variant: "S26C"
  Group Label: "Fulfilled"
- Variant: "R1I"
  Group Label: "Fulfilled"
- Variant: "I33W"
  Group Label: "Not fulfilled"
- Variant: "L50F"
  Group Label: "Fulfilled"
- Variant: "Q21H"
  Group Label: "Fulfilled"
- Variant: "Q41G"
  Group Label: "Fulfilled"
- Variant: "A29V"
  Group Label: "Fulfilled"
- Variant: "V36N"
  Group Label: "Not fulfilled"
- Variant: "G35I"
  Group Label: "Fulfilled"
- Variant: "E69A"
  Group Label: "Fulfilled"
- Variant: "M79D"
  Group Label: "Fulfilled"
- Variant: "N56Y"
  Group Label: "Fulfilled"
- Variant: "T43E"
  Group Label: "Not fulfilled"
- Variant: "L39R"
  Group Label: "Not fulfilled"
- Variant: "F47L"
  Group Label: "Not fulfilled"
- Variant: "E8V"
  Group Label: "Fulfilled"
- Variant: "A7C"
  Group Label: "Fulfilled"
- Variant: "F10M"
  Group Label: "Not fulfilled"
- Variant: "E69Q"
  Group Label: "Fulfilled"
- Variant: "A7V"
  Group Label: "Fulfilled"
- Variant: "M79R"
  Group Label: "Fulfilled"
- Variant: "W67N"
  Group Label: "Not fulfilled"
- Variant: "F47V"
  Group Label: "Not fulfilled"
- Variant: "H54K"
  Group Label: "Fulfilled"
- Variant: "N80F"
  Group Label: "Fulfilled"
- Variant: "M57S"
  Group Label: "Not fulfilled"
- Variant: "L28Y"
  Group Label: "Not fulfilled"
- Variant: "K78M"
  Group Label: "Fulfilled"
- Variant: "L3H"
  Group Label: "Not fulfilled"
- Variant: "F6S"
  Group Label: "Not fulfilled"
- Variant: "K81W"
  Group Label: "Fulfilled"
- Variant: "N56G"
  Group Label: "Fulfilled"
- Variant: "L17A"
  Group Label: "Not fulfilled"
- Variant: "S49T"
  Group Label: "Fulfilled"
- Variant: "D23F"
  Group Label: "Not fulfilled"
